# measurement-protocol: Biodistribution in AR42J tumor-bearing nude mice
# Assay type: in vivo
# condition-context: female, CD-1 nude, mouse, femur, iv, 1 nmol/mouse, total radioactivity, 24 h p.i., i.v. 5 MBq, read-out: Femur
quantity-name: tissue uptake at 24 h

response.value for C[C@@H](O)[C@@H]1NC(=O)[C@H](CCCCN)NC(=O)[C@@H](Cc2c[nH]c3ccccc23)NC(=O)[C@H](Cc2ccc(O)cc2)NC(=O)[C@@H](NC(=O)[C@@H](Cc2ccccc2)NC(=O)CN2CCN(CC(=O)O)CCN(CC(=O)O)CCN(CC(=O)O)CC2)CSSC[C@@H](C(=O)N[C@H](CO)[C@@H](C)O)NC1=O [[^161Tb]Tb-DOTATOC, metal not drawn] (field: tissue uptake at 24 h) = ≤ 0.1 %ID/g
